Listing of entries alongside the reported emission maximum.
Assay method text: solvent given as SMILES
Test parameters: in C1CCCCC1
Number only, in nm; omit the unit.

Completed entries (count: 2):
>>> reported_measurement("N#Cc1cc2ccccc2oc1=O")
412
>>> reported_measurement("CCCC1(CCC)c2cc(-c3ccc4c(c3)C(CCC)(CCC)c3cc(-c5ccc6c(c5)C(CCC)(CCC)c5cc(C(C)(C)CC)ccc5-6)ccc3-4)ccc2-c2ccc(-c3ccc4c(c3)C(CCC)(CCC)c3cc(C(C)(C)CC)ccc3-4)cc21")
407

QUERY: State, in one line, measured emission maximum of `COc1c2ccccc2c(OC)c2c1c1c(F)cccc1n2C`
RESULT: 411

QUERY: State, in one line, measured emission maximum of `Cc1ccc(/C=C/c2nc3ccccc3s2)cc1`
RESULT: 390

QUERY: State, in one line, measured emission maximum of `CCCC1(CCC)c2cc(-c3ccc(OC)cc3)ccc2-c2ccc(-c3ccc4c(c3)C(CCC)(CCC)c3cc(-c5ccc(OC)cc5)ccc3-4)cc21`
RESULT: 395

QUERY: State, in one line, measured emission maximum of `COc1ccc2c(c1)C(C)(C)c1c-2c2ccc(OC)cc2c2cc(OC)ccc12`
RESULT: 398

QUERY: State, in one line, measured emission maximum of `Cc1oc2c(Cl)cc3c(C)cc(=O)oc3c2c1C`
RESULT: 403

* * *

Assay method text: solvent given as SMILES
Test parameters: in CC#N
Measured property: emission maximum (nm)
Number only, in nm; omit the unit.

>>> reported_measurement("CN(C)c1ccc2c(c1)-c1ccccc1C2=O")
557
>>> reported_measurement("Fc1nc(F)c(F)c(C#Cc2nccnc2C#Cc2c(F)c(F)nc(F)c2F)c1F")
440
>>> reported_measurement("c1ccc(N(c2ccccc2)c2ccc(-c3cccc4nc5ccccc5cc34)cc2)cc1")
572
>>> reported_measurement("CN(C)c1ccc(/C=C2\\CC/C(=C\\c3ccc(N(C)C)cc3)C2=O)cc1")
587
>>> reported_measurement("CCC1=C(C)C2=Cc3cscc3B(O)N2C1=O")
412
>>> reported_measurement("[C-]#[N+]c1ccc(-c2ccc(N)cc2)cc1")
410
>>> reported_measurement("C(#Cc1ccccc1C#Cc1ccccc1)c1ccccc1")
360
>>> reported_measurement("Cc1ccc2nc3c(nc2c1)c(-c1ccccc1)nn3C")
516
>>> reported_measurement("COc1ccc(C2=[O+][B-](F)(F)OC(c3ccc4c(c3)Cc3ccccc3-4)=C2)cc1")
466
>>> reported_measurement("F[B-]1(F)n2c(-c3cccs3)cc(-c3ccccc3)c2N=C2C(c3ccccc3)=CC(c3cccs3)=[N+]21")
732

QUERY: State, in one line, measured emission maximum of `O=c1oc2ccccc2cc1/C=C/c1ccc([N+](=O)[O-])cc1`
RESULT: 539

QUERY: State, in one line, measured emission maximum of `CCOC(=O)c1c2c3c(ccc(OC)c3c3cc4c(cc13)[Si](C)(C)O[Si]4(C)C)N(C)C2=O`
RESULT: 418

QUERY: State, in one line, measured emission maximum of `COc1ccc(-c2csc(/C(C#N)=N\Nc3ccc(C#N)cc3)n2)cc1`
RESULT: 505

QUERY: State, in one line, measured emission maximum of `CN(C)c1ccc(C2=Nc3sc4c(F)c(F)c(F)c(F)c4[n+]3[B-](F)(F)O2)cc1`
RESULT: 503

QUERY: State, in one line, measured emission maximum of `Cc1c(OCC(=O)O)cc2c3c([nH]c2c1C)C(=O)CCC3`
RESULT: 419.17

QUERY: State, in one line, measured emission maximum of `O=C1c2ccccc2C(=O)N1c1ccc(Cn2cncn2)cc1`
RESULT: 471

QUERY: State, in one line, measured emission maximum of `COC(=O)c1c(NC(C)(C)C)oc(-c2ccc(-c3ccccc3)cc2)c1C(=O)OC`
RESULT: 446

QUERY: State, in one line, measured emission maximum of `C(=C\c1nc2c3ccccc3c3ccccc3c2o1)/c1ccccc1`
RESULT: 434

QUERY: State, in one line, measured emission maximum of `CCn1c2ccccc2c2cc(/C=C/C(=O)c3ccc4c(c3)c3cc(C(=O)/C=C/c5ccc6c(c5)c5ccccc5n6CC)ccc3n4CC)ccc21`
RESULT: 491

QUERY: State, in one line, measured emission maximum of `Cc1ccc2nc3c(=O)[nH]c(=O)[nH]c3nc2c1C`
RESULT: 461

QUERY: State, in one line, measured emission maximum of `CCOC(=O)CCOc1ccc(C(c2c(C)[nH]c3ccccc23)c2c(C)[nH]c3ccccc23)cc1`
RESULT: 348

Recorded values, source the Deep4Chem optical property database.
